- Species on record: Rattus norvegicus
- run-description: Ratio of drug uptake in tumor to brain in Fischer rat transplanted with rat 9L cells
- Format: ADME, organism-based
// reported Ratio for each item listed
Could you respond with only the numeric value?

Check out these entries, answers already filled in.
>>> df
                               molecule  readout  result_number
0   N[C@]1(C(=O)O)C[C@H](/C=C/[123I])C1    Ratio            7.3
1       N[C@]1(C(=O)O)C[C@@H](C[18F])C1    Ratio            8.9
2        N[C@]1(C(=O)O)C[C@@H]([18F])C1    Ratio            6.6
3  N[C@]1(C(=O)O)C[C@@H](/C=C/[123I])C1    Ratio            6.5

Query: Need Ratio, item "N[C@]1(C(=O)O)C[C@H](C[18F])C1"
Result: 6.9

Query: Quick one: Ratio of NC1(C(=O)O)CC(=C[123I])C1 (stereo unspecified) ?
Result: 4.7

* * *

- run-description: Drug uptake in tumor cells of Fischer rat brain transplanted with rat 9L cells
- Assay type: ADME, cell-based
- experimental-setup: read-out: Drug uptake
readout: tissue uptake (%ID/g)
Give just the number in %ID/g; leave the unit off.

Look over these answered cases.
In [3]: df
Out[3]:
                               molecule  result_number
0  N[C@]1(C(=O)O)C[C@@H](/C=C/[123I])C1           0.83
1   N[C@]1(C(=O)O)C[C@H](/C=C/[123I])C1           0.83

Please turn your attention to the following entry.
Query: Param item = NC1(C(=O)O)CC(=C[123I])C1 (stereo not drawn) ; retrieve measured tissue uptake.
Result: 0.83

* * *

Examples of molecules with documented tissue uptake follow.
- run-description: Drug uptake in normal brain tissue in Fischer rat transplanted with rat 9L cells
- Format: ADME, tissue-based

Query: tissue uptake; subject: NC1(C(=O)O)CC(=C[123I])C1 (stereo not drawn)
Result: < 0.4 %ID/g

Query: Please report the recorded tissue uptake for "N[C@]1(C(=O)O)C[C@H](/C=C/[123I])C1" .
Result: < 0.4 %ID/g

Query: May I ask what tissue uptake has been recorded for "N[C@]1(C(=O)O)C[C@@H](/C=C/[123I])C1" ?
Result: < 0.4 %ID/g

* * *

- Tested on: 9L
- run-description: Inhibition of drug uptake in rat 9L cells in presence of 10 mM BCH relative to control
- Assay type: cell-based
Listed next: entries and their corresponding Drug uptake.
// note: answer is a bare numeric in %

Guide cases for Drug uptake, answers given:
>>> df
                                   compound  result_number
0       N[C@]1(C(=O)O)C[C@H](/C=C/[123I])C1           92.3
1  NC1(C(=O)O)CC(=C[123I])C1 (stereo not drawn)           92.3

Continue with the compound presented below.
Query: Item: "N[C@]1(C(=O)O)C[C@@H](/C=C/[123I])C1" Test system: 9L Read-out: Drug uptake Value: ?
Result: 92.3
